Data credit: patent US6410564B1

# Test system: Uterine Eosinophil Peroxidase (EPO)
# Setup Conditions: female, Sprague Dawley, rat, in vivo, po, 0.1 mg/kg, 4 days
Value Type: Uterine EPO (V. max)

(A) O=C(Oc1ccc(-c2ccc3cc(OC(=O)c4ccccc4)ccc3c2Cc2ccc(OCCN3CCCCC3)cc2)cc1)c1ccccc1
(B) CC1(C)CCN(CCOc2ccc(Cc3c(-c4ccc(O)cc4)ccc4cc(O)ccc34)cc2)C1
(C) COc1ccc(-c2ccc3cc(OC)ccc3c2Cc2ccc(OCCN3CCCCC3)cc2)cc1.Cl
(D) Oc1ccc(-c2ccc3cc(O)ccc3c2Cc2ccc(OCCN3CCCC3)cc2)cc1
Take the molecules listed above and rank them by Uterine EPO (V. max); the top slot goes to the highest value. List labels; respect the requested ordering.
B, C, A, D
(B: 12.9, C: 7.2, A: 4.2, D: 0.9)
